Test system: Rattus norvegicus
assayProcedure: Prophylactic antiinflammatory activity against adjuvant arthritic rat at dose of 25 mg/kg in noninjected 2 degree paw.
Type: functional
Quick rule for you: inhibition in vivo at 25 mg/kg at 60% or higher means label 1, lower means label 0.

Example entries and their recorded answers appear below.
1. COc1ccc(Cn2c(O)c(CC=C(C)C)c(=O)n3c4c(nc23)N(C)CN(C)C4=O)cc1; label 1
2. C/C(=C/Cc1c(O)n(Cc2ccccc2)c2nc3c(n2c1=O)C(=O)N(C)CN3C)C(F)(F)F; label 1

input: Determine whether measured inhibition in vivo at 25 mg/kg meets or exceeds 60% for "CCCc1c(O)n(Cc2ccc(F)cc2)c2nc3c(n2c1=O)C(=O)N(C)CN3C"
output: label 0

input: Then this compound: "CN1CN(C)c2nc3n(Cc4ccccc4)c(O)c(Cc4ccccc4)c(=O)n3c2C1=O"
output: label 0

input: Then this compound: "CCOC(=O)Cc1c(O)n(Cc2ccccc2)c2nc3c(n2c1=O)C(=O)N(C)CN3C"
output: label 0

* * *

System: Rattus norvegicus
assayProcedure: Prophylactic antiinflammatory activity against adjuvant arthritic rat at dose of 25 mg/kg in noninjected 1 degree paw.
Type: functional
Quick rule for you: inhibition in vivo at 25 mg/kg at 20% or higher means 1.0, lower means 0.0.

Example entries and their recorded answers appear below.
1) CN1CN(C)c2nc3n(Cc4ccccc4)c(O)c(C4C=CCCC4)c(=O)n3c2C1=O (configuration not stated); 0.0
2) C/C=C/Cc1c(O)n(Cc2ccccc2)c2nc3c(n2c1=O)C(=O)N(C)CN3C; 1.0
3) COc1ccc(Cn2c(O)c(CC=C(C)C)c(=O)n3c4c(nc23)N(C)CN(C)C4=O)cc1; 1.0
4) C/C(=C/Cc1c(O)n(Cc2ccccc2)c2nc3c(n2c1=O)C(=O)N(C)CN3C)C(F)(F)F; 1.0
5) CCOC(=O)Cc1c(O)n(Cc2ccccc2)c2nc3c(n2c1=O)C(=O)N(C)CN3C; 0.0
6) Cc1c(O)n(Cc2ccccc2)c2nc3c(n2c1=O)C(=O)N(C)CN3C; 0.0

input: Determine whether measured inhibition in vivo at 25 mg/kg meets or exceeds 20% for "CCCc1c(O)n(Cc2ccccc2)c2nc3c(n2c1=O)C(=O)N(C)CN3C"
output: 1.0

input: Then this molecule: "CCCc1c(O)n(Cc2ccc(F)cc2)c2nc3c(n2c1=O)C(=O)N(C)CN3C"
output: 0.0

input: Then this molecule: "CN1CN(C)c2nc3n(Cc4ccccc4)c(O)c(Cc4ccccc4)c(=O)n3c2C1=O"
output: 1.0

input: Then this molecule: "C#CCc1c(O)n(Cc2ccccc2)c2nc3c(n2c1=O)C(=O)N(C)CN3C"
output: 1.0

input: Then this molecule: "CC(C)=CCSc1cc(=O)n2c3c(nc2n1Cc1ccccc1)N(C)CN(C)C3=O"
output: 0.0

* * *

Test system: Rattus norvegicus
assayProcedure: Prophylactic antiinflammatory activity against adjuvant arthritic rat at dose of 25 mg/kg in noninjected 2 degree paw.
Type: functional
reportedEndpoint: inhibition in vivo at 25 mg/kg (%)
Field: numeric (%). Do not append units.

Examples with answers:
1) CCCc1c(O)n(Cc2ccccc2)c2nc3c(n2c1=O)C(=O)N(C)CN3C; 65
2) CC(C)=CCc1c(O)n(Cc2ccc(F)cc2)c2nc3c(n2c1=O)C(=O)N(C)CN3C; 49
3) C/C=C/Cc1c(O)n(Cc2ccccc2)c2nc3c(n2c1=O)C(=O)N(C)CN3C; 40
4) CCCc1c(O)n(Cc2cccs2)c2nc3c(n2c1=O)C(=O)N(C)CN3C; 51

input: What measured inhibition in vivo at 25 mg/kg is associated with "C#CCc1c(O)n(Cc2ccccc2)c2nc3c(n2c1=O)C(=O)N(C)CN3C" on Rattus norvegicus?
output: 21
